- study_target: T1, TRCW5 antigen (CD3δε-Fc-Avi) (biotinylated (site not stated))
- T1 construct: also called recombinant CD3
- T1 sequence (chain, as listed by the source mutant limits assumed): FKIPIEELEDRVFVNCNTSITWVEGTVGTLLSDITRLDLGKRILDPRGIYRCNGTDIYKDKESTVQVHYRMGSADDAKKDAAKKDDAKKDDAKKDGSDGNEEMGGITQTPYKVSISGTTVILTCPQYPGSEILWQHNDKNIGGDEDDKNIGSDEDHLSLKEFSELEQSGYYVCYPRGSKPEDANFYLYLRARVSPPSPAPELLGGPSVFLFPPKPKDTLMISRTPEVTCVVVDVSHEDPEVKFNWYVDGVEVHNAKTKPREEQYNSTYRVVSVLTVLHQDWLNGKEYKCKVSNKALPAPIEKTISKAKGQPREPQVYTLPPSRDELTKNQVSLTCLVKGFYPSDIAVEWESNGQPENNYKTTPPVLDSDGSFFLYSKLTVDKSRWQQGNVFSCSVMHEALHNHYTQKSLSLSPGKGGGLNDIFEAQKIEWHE
- protocol_description: ELISA, E. coli scFv on biotinylated TRCW5
measure_name: EC50

Guide cases for EC50, answers given:
| binder | value |
| --- | --- |
| CD3B1129 (scFv) scFv: QVQLVQSGAEVKKPGSSVKVSCKASGYTFTRSTMHWVRQAPGQGLEWMGYINPSSAYTNYNQKFQGRVTLTADKSTSTAYMELSSLRSEDTAVYYCARPQVHYDYNGFPYWGQGTLVTVSSGGSEGKSSGSGSESKSTGGSDIQLTQSPSSLSASVGDRVTITCSASSSVSYMNWYQQKPGTSPKRLIYDSSKLASGVPSRFSGSGSGTDYTLTISSLQPEDFATYYCQQWSRNPPTFGGGTKVEIK | 0.712 nM |
| CD3B1133 (scFv) scFv: DIQLTQSPSSLSASVGDRVTITCSASSSVSYMNWYQQKPGTSPKRLIYDSSKLASGVPSRFSGSGSGTDYTLTISSLQPEDFATYYCQQWSRNPPTFGGGTKVEIKGGSEGKSSGSGSESKSTGGSQVQLVQSGAEVKKPGSSVKVSCKASGYTFTRSTMHWVRQAPGQGLEWMGYINPSSAYTNYNQKFQGRVTLTADKSTSTAYMELSSLRSEDTAVYYCARPQVHYDYNGFPYWGQGTLVTVSS | 0.958 nM |
| CD3B1130 (scFv, also called IGHV1-69*02-IGHJ1-01 / IGKV3-11*02-IGKJ4-01 grafted construct, HL) scFv: QVQLVQSGAEVKKPGSSVKVSCKASGYTFTRSTMHWVRQAPGQGLEWMGYINPSSAYTNYNQKFQGRVTLTADKSTSTAYMELSSLRSEDTAVYYCARPQVHYDYNGFPYWGQGTLVTVSSGGSEGKSSGSGSESKSTGGSEIVLTQSPATLSLSPGERATLSCSASSSVSYMNWYQQKPGTSPRRLIYDSSKLASGIPARFSGSGSGRDYTLTISSLEPEDFAVYYCQQWSRNPPTFGGGTKVEIK | 0.747 nM |
| CD3B1128 (scFv, also called Murine LH; murine Cris-7 scFv (LH)) scFv: QVVLTQSPAIMSAFPGEKVTMTCSASSSVSYMNWYQQKSGTSPKRWIYDSSKLASGVPARFSGSGSGTSYSLTISSMETEDAATYYCQQWSRNPPTFGGGTKLQITGGSEGKSSGSGSESKSTGGSQVQLQQSGAELARPGASVKMSCKASGYTFTRSTMHWVKQRPGQGLEWIGYINPSSAYTNYNQKFKDKATLTADKSSSTAYMQLSSLTSEDSAVYYCASPQVHYDYNGFPYWGQGTLVTVSA | ~0.437 nM |
| CD3B1134 (scFv) scFv: DIQLTQSPSSLSASVGDRVTITCSASSSVSYMNWYQQKPGTSPKRLIYDSSKLASGVPSRFSGSGSGTDYTLTISSLQPEDFATYYCQQWSRNPPTFGGGTKVEIKGGSEGKSSGSGSESKSTGGSEVQLVQSGAEVKKPGESLRISCKASGYTFTRSTMHWVRQMPGKGLEWMGYINPSSAYTNYNPSFQGHVTLSADKSISTAYLQWSSLKASDTAMYYCARPQVHYDYNGFPYWGQGTLVTVSS | ~0.0063 nM |

Next:
Would you kindly share the measured EC50 for CD3B1127 (scFv, also called Murine HL; murine Cris-7 scFv (HL)) scFv: QVQLQQSGAELARPGASVKMSCKASGYTFTRSTMHWVKQRPGQGLEWIGYINPSSAYTNYNQKFKDKATLTADKSSSTAYMQLSSLTSEDSAVYYCASPQVHYDYNGFPYWGQGTLVTVSAGGSEGKSSGSGSESKSTGGSQVVLTQSPAIMSAFPGEKVTMTCSASSSVSYMNWYQQKSGTSPKRWIYDSSKLASGVPARFSGSGSGTSYSLTISSMETEDAATYYCQQWSRNPPTFGGGTKLQIT ?
~0.397 nM
